Catalogue of binders with associated ECM Score (1 µM)
tgt: extracellular matrix (ECM) proteins
assay_procedure: ECM plate ELISA (Matrigel), 1 uM antibody, A450 over wells without sample
Write the value as a bare number.

hz20-7 (antibody, IgG1, V domains shown, also called clone 20-based hz20-7 antibody) VH: QVQLVQSGAEVKKPGASVKVSCKASGYTFTNYGISWVRQAPGQGLEWMGEIYPRSGNTYHNEKFKDRVTMTTDTSTSTAYMELRSLRSDDTAVYYCARSMITTRYWYFDVWGKGTTVTVSS VL: DIVMTQSPDSLAVSLGERATINCRASESVDTYGNSFMHWYQQKPGQPPKLLIYLASNLESGVPDRFSGSGSGTDFTLTISSLQAEDVAVYYCQQNNEDPLTFGQGTKLEIK : 5

Documented ECM Score (1 µM) of hz20-5 (antibody, V domains shown, light constant region not tied to this antibody) VH: QVQLVQSGAEVKKPGASVKVSCKASGYTFTNYGISWVRQRPGQGLEWIGEIYPRSGNTYHNEKFKDRVTMTADTSTSTVYMELSSLRSEDTAVYYCARSMITTRYWYFDVWGKGTTVTVSS VL: DIVMTQSPDSLAVSLGERATINCRASESVDTYGNSFMHWYQQKPGQPPKLLIYLASNLESGVPDRFSGSGSGTDFTLTISSLQAEDVAVYYCQQNNEDPLTFGAGTKLELK : 3

Documented ECM Score (1 µM) of hz20-8 (antibody, V domains shown, light constant region not tied to this antibody) VH: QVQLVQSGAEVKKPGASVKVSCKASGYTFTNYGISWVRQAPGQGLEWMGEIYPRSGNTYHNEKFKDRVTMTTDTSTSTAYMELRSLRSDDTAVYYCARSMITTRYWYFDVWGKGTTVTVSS VL: DIVMTQSPDSLAVSLGERATINCRASESVDTYGNSFMHWYQQKPGQPPKLLIYLASNLESGVPDRFSGSGSGTDFTLTIDSLQAEDVAVYYCQQNNEDPLTFGQGTKLEIK : 4

Documented ECM Score (1 µM) of hz13-11 (antibody, V domains shown, light constant region not tied to this antibody) VH: EVQLVQSGAEVKKPGATVKISCTSSDFNIKDHFIHWVQQAPGKGLEWMGRIDPEDDETKYAPKFQDRVTITADTSTDTAYMELSSLRSEDTAVYYCAGYGNYEGAMDYWGQGTTVTVSS VL: DVVMTQSPLSLPVTLGQPASISCRASENVNNYGIGFMNWFQQRPGQSPRRLIYAASRRGSGVPDRFSGSGSGTDFTLKISRVEAEDVGVYYCQQSKEVPYTFGGGTKVEIK : 1

Documented ECM Score (1 µM) of hz13-10 (antibody, V domains shown, light constant region not tied to this antibody) VH: EVQLVQSGAEVKKPGATVKISCKVSDFNIKDHFIHWVQQAPGKGLEWMGRIDPEDDETKYAPKFQDRVTITADTSTDTAYMELSSLRSEDTAVYYCAGYGNYEGAMDYWGQGTTVTVSS VL: DVVMTQSPLSLPVTLGQPASISCRASENVNNYGIGFMNWFQQRPGQSPRLLIYAASRRGSGVPDRFSGSGSGTDFTLKISRVEEEDVGVYYCQQSKEVPYTFGGGTKVEIK : 1
